tested on: mice; assay: Muscle relaxant activity: rotating rod test; format: in vivo, male dd mice; settings: 300 mg/kg p.o., 2 hr after administration
Property Name: No. of falling mice/five tested mice, rotating rod test
Value and unit, in that order.

So for Cc1ccc2oc(CC(=O)N(C)C)c(C)c2c1 [B] , the logged No. of falling mice/five tested mice, rotating rod test turned out to be 5 mice/five tested mice

Item: COc1ccc2oc(CC(=O)N(C)C)c(C)c2c1 [A] | No. of falling mice/five tested mice, rotating rod test: 3 mice/five tested mice

Per the records, this compound ( Cc1c(CC(=O)N(C)C)oc2ccc(F)cc12 [D] ) has No. of falling mice/five tested mice, rotating rod test equal to 5 mice/five tested mice

The compound Cc1c(CC(=O)N(C)C)oc2ccc(-c3ccccc3)cc12 [C] showed No. of falling mice/five tested mice, rotating rod test equal to 3 mice/five tested mice
